A collection of compounds and their measured growth inhibition
# assay-method-text: NCI Yeast Anticancer Drug Screen. Data for the bub3 strain (AID 167)
# study-conditions: S. cerevisiae bub3 mutant strain, at 11.0 µM, active compounds read high
The panel holds about 79,000 compounds, 15% with a hit somewhere; the sample as a whole holds those more often.
Return type: number; implicit unit %.

CC1CCCN(CCc2ccccc2)CC1 (configuration not stated)    9
C/C(=N\O)c1ccc2ccc3ccccc3c2c1    29
Nc1nc(N)c(-c2ccc(Cl)c(Cl)c2)c(CP(Cl)(Cl)(Cl)Br)n1    42
c1c(N2CCOCC2)ssc1=[N+]1CCOCC1    1
CC1=C2C(=C[C@@](C)(CO)[C@@H]2O)C(=O)[C@](C)(O)C12CC2    -7
CN(N=O)C(=O)NNC(=O)N(C)N=O    -6
C[C@]12CC[C@H](O)CC1=CC[C@@H]1[C@@H]2CC[C@]2(C)C(=O)CC[C@@H]12    -17
CC1=C(CO)C2=C(C)C3(CC3)[C@@](C)(O)C(=O)C2=C1    -8
CCN(CC)CCBr    -7
[O-][n+]1c2cccc(O)c2[n+]([O-])c2cccc(O)c21    0

Task item: Which value of growth inhibition has been reported for Nc1ccccc1C(=O)OCCc1ccccc1 in the records?
Reply: -1

Task item: Bench note: what growth inhibition did Nc1nnc(N)n1-n1c(N)nnc1N show?
Reply: 2

* * *

Measured growth inhibition, listed per entry.
# assay-method-text: NCI Yeast Anticancer Drug Screen. Data for the mec2-1 strain (AID 157)
# study-conditions: S. cerevisiae mec2-1 strain, at 5.0 µM (retest, dose inferred, filed as 0.5), active compounds read high
Compounds without any hit were thinned out: in the full panel of roughly 79,000, 15% have a hit.
Write the answer as a number in %, unit excluded.

N.N.N.N.N.N#N.[Cl-].[Os+7]    17
O=c1ccn(C2OC(CO)C(O)C2O)c(=O)[n]1[Hg][c]1ccccc1 (stereo unspecified)    100
O=c1oc2ccccc2c(O)c1C1c2c(c3ccccc3oc2=O)Oc2c1c(=O)oc1ccccc21    2
CC(C)COP(=O)(OCC(C)C)C(=O)Nc1ccc(Cl)cc1    -19
O/N=C/c1ccc2c(c1)OCO2    100
N#C[S-].[Nd+3].c1ccc(-c2ccccn2)nc1.c1ccc(-c2ccccn2)nc1.c1ccc(-c2ccccn2)nc1    40

Task item: Field request: growth inhibition | item: Cc1nc2c(Br)cc(Br)cc2c(=O)n1-c1ccccc1N
Reply: 15

Task item: Which growth inhibition is reported for this compound? COC1NC(=O)NC(=O)C1=[N+]=[N-] (stereo unspecified)
Reply: -44

Task item: Would you kindly share the measured growth inhibition for [Pt].c1ccc(P(CCP(c2ccccc2)c2ccccc2)CCP(c2ccccc2)c2ccccc2)cc1 ?
Reply: -3

Task item: // growth inhibition lookup, key: CCNc1ncc2ccccc2c1-c1ccc(N2CCN(CCCl)CC2)cc1
Reply: 13

Task item: Which measured growth inhibition value corresponds to [CH3][Sn]([Br])([Br])[CH2]CCCBr ?
Reply: 10

* * *

growth inhibition for assorted compounds
# assay-method-text: NCI Yeast Anticancer Drug Screen. Data for the bub3 strain (AID 167)
# study-conditions: S. cerevisiae bub3 mutant strain, at 50.0 µM (retest, dose inferred, filed as 5.0), active compounds read high
# Description: Growth inhibition of yeast strains with defined genetic alterations is measured as a screen for potential anti-cancer activity. Selected strains with alterations in DNA damage repair or cell cycle control were exposed to compounds and growth inhibition was measured relative to vehicle treated controls. The strain used in this assay is bub3
About 79,000 compounds went through this panel and 15% of them were active in at least one assay; those are over-represented in the sample as a whole.
Give the number; % is assumed, so skip it.

Illustrative cases are given below, each with its answer.
[Br][Cd][Br].c1ccc([PH+](c2ccccc2)c2ccccc2)cc1.c1ccc([PH+](c2ccccc2)c2ccccc2)cc1    93
O=c1[nH]cc(Cn2cnc3ncccc3c2=O)c(=O)[nH]1    -2
CCCCCCCCCCCCNCCc1ccccc1    98
CCCCC1CCCCCCc2[nH]c(/C=C3\N=C(c4ccc[nH]4)C=C3OC)cc21 (stereo unspecified)    93
Nc1ccc(Cc2ccc(N)c(Cl)c2)cc1Cl    93
FC1(F)C(Cl)=[C]([Hg][C]2=C(Cl)C(F)(F)C(F)(F)C(F)(F)C2(F)F)C(F)(F)C(F)(F)C1(F)F    99

Task item: What value of growth inhibition has been reported for the following compound? COc1ccc(OC)c(C=O)c1
Reply: 7

Task item: Sample CC(C)(C)CC(C)(C)c1ccc(O)cc1 — what was its growth inhibition?
Reply: 98

* * *

# assay-method-text: NCI Yeast Anticancer Drug Screen. Data for the wt1 strain (AID 149);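 note: 0% = growth of vehicle-treated wt1 cultures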
# study-conditions: S. cerevisiae wt1 strain (SPY 50644) growth inhibition; at 1.2 µM; active compounds read high
Compounds without any hit were thinned out: in the full panel of roughly 79,000, 15% have a hit.
reported-property: growth inhibition (%)
Numbers only; they are read as %.

Before answering, review these 5 worked examples.
CC[PH+](CC)CC.CC[PH+](CC)CC.[Au]    6
CNC(=O)ON(C(C)=O)C(=O)NC    -60
Cc1ccc2nc3sc(=O)sc3nc2c1    -2
O=C1C=C(CN(CCCl)CCCl)C(=O)C=C1CN(CCCl)CCCl    -3
Nc1ccccc1C(=O)OCCc1ccccc1    -25

Now turn to the next compound.
Task item: Item CCNCC(=O)O[C@]1(CC)C(=O)OCc2c1cc1n(c2=O)Cc2cc3ccccc3nc2-1 has what recorded growth inhibition?
Reply: 19

* * *

# assay-method-text: NCI Yeast Anticancer Drug Screen. Data for the mlh1 rad18 strain (AID 175)
# study-conditions: S. cerevisiae mlh1 rad18 strain growth inhibition; at 50.0 µM (retest, dose inferred, filed as 5.0)
This is part of a sample that, as a whole, favours compounds with a hit. Of some 79,000 tested, about 15% had one in any assay. Active and inactive are the calls of the source. No stated cut-off is given here; in the data, active means growth inhibition above about 70%; inactive means the rest.
Choose the fitting class; nothing outside active, inactive is accepted.

Sample answers from the record:
O=C(Nc1cc(Cl)ccc1Cl)C(Cl)(Cl)Cl    active
COc1cc(Br)cc(/C=C(\C)[N+](=O)[O-])c1O    active
FC(F)(F)c1cccc(CCl)c1    inactive
CCC[CH2][Sn]([Cl])([Cl])[CH2]CCC    active
CC(C)C1=CC23CCC4C(C)(C(=O)O)CCCC4(C)C2CC1OO3 (stereo unspecified)    active

Task item: Assay result, entry O=C(C1C(c2ccccc2)N1C(c1ccccc1)c1ccccc1)C1C(c2ccccc2)N1C(c1ccccc1)c1ccccc1 (stereo unspecified) — outcome?
Reply: active

* * *

# assay-method-text: NCI Yeast Anticancer Drug Screen. Data for the rad50EPP+ strain (AID 151);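 note: 0% = growth of vehicle-treated control cultures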
# study-conditions: S. cerevisiae rad50 mutant strain, at 3.7 µM, active compounds read high
This is part of a sample that, as a whole, favours compounds with a hit. Of some 79,000 tested, about 15% had one in any assay.
reported-property: growth inhibition (%)
Answer format: numeric, % implied, no suffix.

Task item: Request the reported growth inhibition associated with CCC1(O)C(=O)OCc2c1cc1n(c2=O)Cc2cc3cc(Cl)ccc3nc2-1 (centres undefined)
Reply: 93

Task item: Item Oc1ccc(Cl)cc1Cc1ccccc1 has what recorded growth inhibition?
Reply: -15

Task item: Form field: reported growth inhibition of CC(C)CC(NC(=O)C(N)C(C)C)C(=O)NC(CCCCN)C(=O)Nc1ccc(N(CCCl)CCCl)cc1 (centres undefined)
Reply: 9

* * *

# assay-method-text: NCI Yeast Anticancer Drug Screen. Data for the rad50 strain (AID 155);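 note: 0% = growth of vehicle-only cultures of the same strain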
# study-conditions: S. cerevisiae rad50 strain growth inhibition; at 3.7 µM; active compounds read high
Compounds without any hit were thinned out: in the full panel of roughly 79,000, 15% have a hit.
reported-property: growth inhibition (%)
Just the number please, in %, no unit attached.

O=C1C2CC(Cl)C(SSC3CC4C(=O)N(SC(Cl)(Cl)C(Cl)Cl)C(=O)C4CC3Cl)CC2C(=O)N1SC(Cl)(Cl)C(Cl)Cl (stereo not drawn)    92
C/C(=N\O)c1ccc2ccc3ccccc3c2c1    12

// below: growth inhibition requested for another compound
Task item: Recorded growth inhibition for CC[C@@]1(O)C(=O)OCc2c1cc1n(c2=O)Cc2cc3ccccc3nc2-1 , please?
Reply: 97

* * *

# assay-method-text: NCI Yeast Anticancer Drug Screen. Data for the sgs1 mgt1 strain (AID 161);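 note: 0% = growth of cultures given vehicle only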
# study-conditions: S. cerevisiae sgs1 mgt1 strain, at 5.0 µM (retest, dose inferred, filed as 0.5), active compounds read high
Compounds without any hit were thinned out: in the full panel of roughly 79,000, 15% have a hit.
reported-property: growth inhibition (%)
Report the figure in % without appending any unit label.

Answered examples (4):
COc1ccc(-c2c(C)c(C(=O)O)nc(-c3ccc4c(O)c(OC)c5c(c4n3)=NC(C)(C)N=5)c2N)c(O)c1OC    39
ClC(C[n+]1ccccc1)c1ccccc1 (stereo not given)    10
CCOC(=O)C1=C(C)NC(=O)NC1c1ccc(N(CCCl)CCCl)cc1Cl (stereo not given)    -3
COC(=O)c1c(C)ccc2c(O)c3c(cc12)C(=O)c1c2c(cc(O)c1C3=O)C1(C)OC(C)(O2)C(O)C(N(C)C)C1O (stereo not given)    -11

Task item: Param item = Nc1c(Cl)cccc1C(=O)O ; retrieve measured growth inhibition.
Reply: 1
